# target.or.test.system: Btk (Rattus norvegicus, UniProt Q5S255)
# Sequence (Q5S255 1-660): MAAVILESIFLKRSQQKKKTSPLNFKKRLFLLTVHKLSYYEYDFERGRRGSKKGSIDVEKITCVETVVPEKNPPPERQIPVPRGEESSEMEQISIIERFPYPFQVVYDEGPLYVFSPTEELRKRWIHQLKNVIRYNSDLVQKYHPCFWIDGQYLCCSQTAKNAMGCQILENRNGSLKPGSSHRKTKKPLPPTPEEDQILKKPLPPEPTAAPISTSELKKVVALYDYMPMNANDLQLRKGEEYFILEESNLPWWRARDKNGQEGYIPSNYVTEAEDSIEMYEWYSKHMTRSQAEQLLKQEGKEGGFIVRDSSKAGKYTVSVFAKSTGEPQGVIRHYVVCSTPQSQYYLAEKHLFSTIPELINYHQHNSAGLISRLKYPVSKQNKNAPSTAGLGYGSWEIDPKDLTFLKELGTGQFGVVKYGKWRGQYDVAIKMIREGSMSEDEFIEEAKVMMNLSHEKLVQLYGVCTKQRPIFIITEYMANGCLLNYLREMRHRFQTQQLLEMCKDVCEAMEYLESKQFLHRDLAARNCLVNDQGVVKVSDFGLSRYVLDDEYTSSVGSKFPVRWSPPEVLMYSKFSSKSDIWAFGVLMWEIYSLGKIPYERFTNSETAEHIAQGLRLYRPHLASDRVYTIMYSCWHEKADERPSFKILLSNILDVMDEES
# run.description: Inhibition of Btk activity in blood (in vitro B cell activation assay, CD86, rat whole blood)
# condition.notes: Lewis rat whole blood diluted to 50%, anti-rat IgM + rat IL-4, 24 hours, CD86 on CD45RA positive B cells
recorded.endpoint: log10 of IC50 (log10 of the value in nM)

[
  {
    "compound.string": "C=CC(=O)NC1(COc2c(N)ncnc2-c2cc(F)cc(NC(=O)c3ccc(C4CC4)cc3F)c2C)CC1",
    "recorded.endpoint": "log10 of IC50",
    "result.value": 2.75
  },
  {
    "compound.string": "C=CC(=O)N(C)CCOc1c(N)ncnc1-c1cccc(-n2ccc3cc(C4CC4)cc(F)c3c2=O)c1",
    "recorded.endpoint": "log10 of IC50",
    "result.value": 2.66
  },
  {
    "compound.string": "C=CC(=O)N(CCF)CCOc1c(N)ncnc1-c1cc(F)cc(NC(=O)c2ccc(C3CC3)cc2F)c1C",
    "recorded.endpoint": "log10 of IC50",
    "result.value": 1.46
  },
  {
    "compound.string": "C=CC(=O)N(C)CCOc1c(N)ncnc1-c1cc(F)cc(N2CCc3cc(C4CC4)ccc3C2=O)c1CO",
    "recorded.endpoint": "log10 of IC50",
    "result.value": 1.81
  },
  {
    "compound.string": "CC#CC(=O)N1C[C@H](F)C[C@H]1COc1c(N)ncnc1-c1cc(F)cc(NC(=O)c2ccc(C3CC3)cc2F)c1C",
    "recorded.endpoint": "log10 of IC50",
    "result.value": 1.74
  },
  {
    "compound.string": "C=CC(=O)N1CC[C@H](OC)[C@H]1COc1c(N)ncnc1-c1cc(F)cc(NC(=O)c2ccc(C3CC3)cc2F)c1C",
    "recorded.endpoint": "log10 of IC50",
    "result.value": 1.85
  },
  {
    "compound.string": "C#CC(=O)N1CC[C@H]1COc1c(N)ncnc1-c1cc(F)cc(NC(=O)c2ccc(C3CC3)cc2F)c1C",
    "recorded.endpoint": "log10 of IC50",
    "result.value": 2.32
  }
]
